From: patent US3953604A

- ASSAY: acute toxicity tests, intravenous, animals observed for one week
- RUN_PARAMETERS: in vivo, rat, dose is the maximum possible, limited by solubility, read-out: Therapeutic Ratio (Dose/ID50)
Where a name gives a salt, the structure may show the parent alone.
Task for the reader: assign each of the following compounds its reported selectivity ratio at 168 h.

For O=C(O)c1cc(=O)c2c(OCC(O)COc3ccc(Cl)cc3)cccc2o1 (stereo not drawn) [Example 11] the compound record lists selectivity ratio at 168 h as > 43

For O=C(O)c1cc(=O)c2c(OCC(O)COc3cccc4oc(C(=O)O)cc(=O)c34)cccc2o1 [DSCG, disodium salt, reference compound] the compound record lists selectivity ratio at 168 h as > 1150

For N#Cc1ccc(OCC(O)COc2cccc3oc(C(=O)O)cc(=O)c23)cc1 (stereo not drawn) [Example 35, Sodium Salt] the compound record lists selectivity ratio at 168 h as > 3170

For O=C(O)c1cc(=O)c2c(OCC(O)COc3ccc(Br)cc3)cccc2o1 (stereo not drawn) [Example 8, Sodium Salt] the compound record lists selectivity ratio at 168 h as > 40

For COc1ccc(OCC(O)COc2cccc3oc(C(=O)O)cc(=O)c23)cc1 (stereo not drawn) [Example 15, Sodium Salt] the compound record lists selectivity ratio at 168 h as > 62

For O=C(O)c1cc(=O)c2c(OCC(O)COc3ccccc3)cccc2o1 (stereo not drawn) [Example 4, Sodium Salt] the compound record lists selectivity ratio at 168 h as > 339

For O=C(O)c1cc(=O)c2c(OCC(O)COc3ccc([N+](=O)[O-])cc3)cccc2o1 (stereo not drawn) [Example 38, Sodium Salt] the compound record lists selectivity ratio at 168 h as > 173

For CCOC(=O)c1cc(=O)c2c(OCC(O)COc3ccc(C#N)cc3)cccc2o1 (stereo not drawn) [Example 34] the compound record lists selectivity ratio at 168 h as > 84

For Cc1ccccc1OCC(O)COc1cccc2oc(C(=O)O)cc(=O)c12 (stereo not drawn) [Example 19, Sodium Salt] the compound record lists selectivity ratio at 168 h as > 281

----------
- Tested on: passive cutaneous anaphylaxis
- ASSAY: duration of antiallergic activity by the PCA test, compared directly with DSCG
- Format: in vivo
- RUN_PARAMETERS: rat; 25 μ moles/kg test compound 10 minutes before egg albumin antigen; groups of 10 animals
Where a name gives a salt, the structure may show the parent alone.
Category scheme (Mean Reaction Diameters in Milimeters After 25 μ moles/kg of Test Compound): class 1 = under 6 Milimeters, class 2 = from 6 Milimeters up to 10 Milimeters, class 3 = 10 Milimeters and over

Lab log: O=C(O)c1cc(=O)c2c(OCC(O)COc3ccc(Cl)cc3Cl)cccc2o1 (centres unmarked) [Example 62, Sodium Salt] — assign Mean Reaction Diameters in Milimeters After 25 μ moles/kg of Test Compound category
class 1

Lab log: O=C(O)c1cc(=O)c2c(OCC(O)COc3ccc([N+](=O)[O-])cc3)cccc2o1 (centres unmarked) [Example 38, Sodium Salt] — assign Mean Reaction Diameters in Milimeters After 25 μ moles/kg of Test Compound category
class 3

Lab log: COc1ccc(OCC(O)COc2cccc3oc(C(=O)O)cc(=O)c23)cc1 (centres unmarked) [Example 15, Sodium Salt] — assign Mean Reaction Diameters in Milimeters After 25 μ moles/kg of Test Compound category
class 3

Lab log: O=C(O)c1cc(=O)c2c(OCC(O)COc3ccc(F)cc3)cccc2o1 (centres unmarked) [Example 65, Sodium Salt] — assign Mean Reaction Diameters in Milimeters After 25 μ moles/kg of Test Compound category
class 3

Lab log: O=C(O)c1cc(=O)c2c(OCC(O)COc3ccc(Br)cc3)cccc2o1 (centres unmarked) [Example 8, Sodium Salt] — assign Mean Reaction Diameters in Milimeters After 25 μ moles/kg of Test Compound category
class 2

Lab log: O=C(O)c1cc(=O)c2c(OCC(O)COc3ccc(Cl)cc3)cccc2o1 (centres unmarked) [Example 11] — assign Mean Reaction Diameters in Milimeters After 25 μ moles/kg of Test Compound category
class 1

Lab log: N#Cc1ccc(OCC(O)COc2cccc3oc(C(=O)O)cc(=O)c23)cc1 (centres unmarked) [Example 35, Sodium Salt] — assign Mean Reaction Diameters in Milimeters After 25 μ moles/kg of Test Compound category
class 2

Lab log: CC(=O)c1c(O)cccc1OCC(O)COc1cccc(C(F)(F)F)c1 (centres unmarked) [Example 57] — assign Mean Reaction Diameters in Milimeters After 25 μ moles/kg of Test Compound category
class 2

Lab log: Cc1ccccc1OCC(O)COc1cccc2oc(C(=O)O)cc(=O)c12 (centres unmarked) [Example 19, Sodium Salt] — assign Mean Reaction Diameters in Milimeters After 25 μ moles/kg of Test Compound category
class 3

Lab log: O=C(O)c1cc(=O)c2c(OCC(O)COc3ccccc3)cccc2o1 (centres unmarked) [Example 4, Sodium Salt] — assign Mean Reaction Diameters in Milimeters After 25 μ moles/kg of Test Compound category
class 3
